Measurement kind: melting point

Solved entries:
[[record]]
molecule = "CCN(CC)CCOc1ccc(Nc2ncc3ccc(=O)n(C4CCCC4)c3n2)cc1"
result = "105 to 107 °C"

[[record]]
molecule = "CC1CN(c2ccc(Nc3ncc4ccc(=O)n(C5CCCCC5)c4n3)cc2)CC(C)N1CCO (stereo not drawn)"
result = "175 to 177 °C"

[[record]]
molecule = "Cn1c(=O)ccc2cnc(N)nc21"
result = "237 to 253 °C"

[[record]]
molecule = "CCOC(=O)C=Cc1cnc(Nc2ccccc2)nc1N"
result = "190 to 192 °C"

[[record]]
molecule = "CCn1c(=O)ccc2cnc(Nc3ccc(OC)cc3)nc21"
result = "196 to 197 °C"


Asked: Fill in the blank: the reported melting point of `CCn1c(=O)ccc2cnc(NC(C)(C)C)nc21` is ____.
Given back: 103 to 104 °C

Asked: Using the record for `CCn1c(=O)ccc2cnc(Nc3ccc(N4CCOCC4)cc3)nc21` , report its melting point.
Given back: 227 to 228 °C

Asked: Item under review: `CN1CCN(c2ccc(Nc3ncc4ccc(=O)n(-c5ccccc5)c4n3)cc2)CC1` . Reported melting point?
Given back: 259 to 262 °C

Asked: What does the record list as melting point for `O=c1ccc2cnc(Nc3ccc(-n4cccn4)cc3)nc2n1C1CCCC1` ?
Given back: 197 to 198 °C

Cited source: patent US20040224958A1
